Source listed as ChEMBL document CHEMBL5316271.

test system: Primary cortical neuron; test: Induction of microtubule stabilization in mouse Primary cortical neuron cells assessed as prevention of okadaic acid induced microtubule collapse by measuring cellular acetylated alpha-tubulin level at 10 uM incubated for 8 hrs by ELISA; type: cell-based
Calls of active or inactive are those of the source. No cut-off for these calls is given here.
experimental readout: Activity

Below are worked cases with known answers.
[
  {
    "smiles record": "CC(C)[C@@H](C)Nc1c(-c2c(F)cc(F)cc2F)c(Cl)nc2ncnn12",
    "system name": "Primary cortical neuron",
    "Activity": "Active"
  },
  {
    "smiles record": "C[C@@H](Nc1c(-c2c(F)cc(C#CCCCO)cc2F)c(Cl)nc2ncnn12)C(C)(C)C",
    "system name": "Primary cortical neuron",
    "Activity": "Active"
  },
  {
    "smiles record": "C[C@@H](Nc1c(-c2c(F)cc(C#CCCO)cc2F)c(Cl)nc2ncnn12)C(C)(C)C",
    "system name": "Primary cortical neuron",
    "Activity": "Active"
  },
  {
    "smiles record": "CC(C)[C@@H](C)Nc1c(-c2c(F)cc(C#CCCCO)cc2F)c(Cl)nc2ncnn12",
    "system name": "Primary cortical neuron",
    "Activity": "Active"
  }
]

Please examine the following record next.
Report Activity from Primary cortical neuron testing of `C[C@@H](Nc1c(-c2c(F)cc(OCCCN(C)C)cc2F)c(Cl)nc2ncnn12)C(C)(C)C` Active

* * *

test system: Primary cortical neuron; assay: Induction of microtubule stabilization in mouse Primary cortical neuron cells assessed as prevention of okadaic acid induced microtubule collapse by measuring cellular acetylated alpha-tubulin level at 10 uM incubated for 8 hrs by ELISA; assay type: cell-based
Active and inactive are the calls of the source. The rule behind the calls is not given here.
The categories you may choose from are true (1) for active, false (0) for inactive

Query: recorded result category for `CC(C)[C@@H](C)Nc1c(-c2c(F)cc(C#CCCO)cc2F)c(Cl)nc2ncnn12` in this test true (1)

Query: recorded result category for `C[C@@H](Nc1c(-c2c(F)cc(C#CCCN(C)C)cc2F)c(Cl)nc2ncnn12)C(C)(C)C` in this test true (1)

Query: recorded result category for `C[C@@H](Nc1c(-c2c(F)cc(OCCCO)cc2F)c(Cl)nc2ncnn12)C(C)(C)C` in this test false (0)
